This collection of values is drawn from patent US20180353501A1.

test: Pharmacokinetics of intraperitoneal or intravenous injection in CD1 mice (plasma, LC/MS/MS); format: in vivo; conditions: male, CD1, mouse, plasma, iv, 1 mg/kg, IV 1.0 mg/kg, 1 h, read-out: Conc. Mouse 1

MOLECULE	concentration at 1 h / ng/mL
COc1cc2c(Oc3ccc(NC(=O)C4(C(=O)Nc5ccc(F)cc5)CC4)cc3F)ccnc2cc1OCCCOCCCOCCC(=O)N[C@H](C(=O)N1C[C@H](O)C[C@H]1C(=O)NCc1ccc(-c2scnc2C)cc1)C(C)(C)C [Example 1]	142

---

experiment: Pharmacokinetics of intraperitoneal or intravenous injection in CD1 mice (plasma, LC/MS/MS); type: in vivo; details: male, CD1, mouse, plasma, iv, 1 mg/kg, IV 1.0 mg/kg, 0.25 h, read-out: Conc. Mouse 1

COMPOUND	concentration at 0.25 h
COc1cc2c(Oc3ccc(NC(=O)C4(C(=O)Nc5ccc(F)cc5)CC4)cc3F)ccnc2cc1OCCCOCCCOCCC(=O)N[C@H](C(=O)N1C[C@H](O)C[C@H]1C(=O)NCc1ccc(-c2scnc2C)cc1)C(C)(C)C [Example 1]	491 ng/mL
